All values here come from PubChem BioAssay AID2060336.

Tested on: 958767-090-R-J1-PDC spheroid growth
Test summary: Anticancer human tumor 958767-090-R-J1-PDC patient-derived head and neck squamous carcinoma cell line growth inhibition [IpAb]
Setup conditions: second compound 0.316 µM; first compound 0.00949 µM; stronger effect = lower value; spheroids with HUVEC and MSC
Param label: returns fulfilled when viability, T/C < 50%, returns not fulfilled otherwise, including exact equality.

| Compound | Assigned category |
| --- | --- |
| CC(=O)c1c(C)c2cnc(Nc3ccc(N4CCNCC4)cn3)nc2n(C2CCCC2)c1=O + CC(C)NCC(C(=O)N1CCN(c2ncnc3c2C(C)CC3O)CC1)c1ccc(Cl)cc1 | not fulfilled |
| Cn1cnc2c(F)c(Nc3ccc(Br)cc3Cl)c(C(=O)NOCCO)cc21 + CC(C)NCC(C(=O)N1CCN(c2ncnc3c2C(C)CC3O)CC1)c1ccc(Cl)cc1 | fulfilled |
| CC(C)(C)c1cnc(CSc2cnc(NC(=O)C3CCNCC3)s2)o1 + CC(C)NCC(C(=O)N1CCN(c2ncnc3c2C(C)CC3O)CC1)c1ccc(Cl)cc1 | not fulfilled |
| CC(C)(C)c1cnc(CSc2cnc(NC(=O)C3CCNCC3)s2)o1 + CCN1CCN(Cc2ccc(Nc3ncc(F)c(-c4cc(F)c5nc(C)n(C(C)C)c5c4)n3)nc2)CC1 | not fulfilled |
| Cn1cnc2c(F)c(Nc3ccc(Br)cc3Cl)c(C(=O)NOCCO)cc21 + CCN1CCN(Cc2ccc(Nc3ncc(F)c(-c4cc(F)c5nc(C)n(C(C)C)c5c4)n3)nc2)CC1 | not fulfilled |
| CC(=O)c1c(C)c2cnc(Nc3ccc(N4CCNCC4)cn3)nc2n(C2CCCC2)c1=O + CCN1CCN(Cc2ccc(Nc3ncc(F)c(-c4cc(F)c5nc(C)n(C(C)C)c5c4)n3)nc2)CC1 | not fulfilled |

* * *

System: 958767-090-R-J1-PDC spheroid growth
Test summary: Anticancer human tumor 958767-090-R-J1-PDC cell line growth inhibition [IpAb];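 note: spheroids exposed to agents for 7 days; 100% = DMSO vehicle control wells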
Setup conditions: second compound 0.0316 µM; first compound 1 µM; stronger effect = lower value; spheroids with HUVEC and MSC
Value type: viability, T/C (%)

| Compound | Value measured |
| --- | --- |
| C=CCn1c(=O)c2cnc(Nc3ccc(N4CCN(C)CC4)cc3)nc2n1-c1cccc(C(C)(C)O)n1 + CCN1CCN(Cc2ccc(Nc3ncc(F)c(-c4cc(F)c5nc(C)n(C(C)C)c5c4)n3)nc2)CC1 | 34.7 |
| CCCS(=O)(=O)Nc1ccc(F)c(C(=O)c2c[nH]c3ncc(-c4ccc(Cl)cc4)cc23)c1F + CCN1CCN(Cc2ccc(Nc3ncc(F)c(-c4cc(F)c5nc(C)n(C(C)C)c5c4)n3)nc2)CC1 | 73.6 |
| Cc1nc(NC(=O)N2CCCC2C(N)=O)sc1-c1ccnc(C(C)(C)C(F)(F)F)c1 (stereo not given) + CCN1CCN(Cc2ccc(Nc3ncc(F)c(-c4cc(F)c5nc(C)n(C(C)C)c5c4)n3)nc2)CC1 | 27.2 |
| Cn1nccc1Nc1nccc(-c2ccn(C(CO)c3ccc(Cl)c(F)c3)c(=O)c2)n1 (stereo not given) + CCN1CCN(Cc2ccc(Nc3ncc(F)c(-c4cc(F)c5nc(C)n(C(C)C)c5c4)n3)nc2)CC1 | 55.2 |
| CC1(C)CCC(CN2CCN(c3ccc(C(=O)NS(=O)(=O)c4ccc(NCC5CCOCC5)c([N+](=O)[O-])c4)c(Oc4cnc5[nH]ccc5c4)c3)CC2)=C(c2ccc(Cl)cc2)C1 + CCN1CCN(Cc2ccc(Nc3ncc(F)c(-c4cc(F)c5nc(C)n(C(C)C)c5c4)n3)nc2)CC1 | 70.9 |
